target_system: myeloperoxidase (Homo sapiens)
Sequence (P05164 49-745): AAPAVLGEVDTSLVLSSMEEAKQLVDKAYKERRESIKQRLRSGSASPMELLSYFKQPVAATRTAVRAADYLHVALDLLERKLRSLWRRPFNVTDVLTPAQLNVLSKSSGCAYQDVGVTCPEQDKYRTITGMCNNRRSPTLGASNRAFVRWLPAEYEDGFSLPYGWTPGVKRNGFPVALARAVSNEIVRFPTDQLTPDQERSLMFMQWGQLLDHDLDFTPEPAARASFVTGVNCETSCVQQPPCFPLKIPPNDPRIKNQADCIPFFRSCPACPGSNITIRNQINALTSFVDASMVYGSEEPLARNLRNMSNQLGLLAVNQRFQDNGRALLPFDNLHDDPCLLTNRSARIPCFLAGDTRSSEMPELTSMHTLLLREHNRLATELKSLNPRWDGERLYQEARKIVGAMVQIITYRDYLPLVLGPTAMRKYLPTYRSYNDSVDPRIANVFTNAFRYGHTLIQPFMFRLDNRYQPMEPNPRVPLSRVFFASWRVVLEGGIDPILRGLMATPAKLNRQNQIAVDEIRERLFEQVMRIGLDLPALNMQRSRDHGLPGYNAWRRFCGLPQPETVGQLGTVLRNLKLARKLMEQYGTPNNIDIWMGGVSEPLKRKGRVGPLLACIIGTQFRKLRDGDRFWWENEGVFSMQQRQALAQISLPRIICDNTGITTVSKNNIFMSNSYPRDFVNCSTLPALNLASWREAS
protocol_text: MPO Chlorination Assay (APF Assay)
Type: biochemical
protocol_conditions: potency range class, read-out: APF Assay IC50 value
measure_name: IC50

>>> meas_value("Nc1cc(C(CCNC2(CO)CCC(c3ccccc3)CC2)c2ccccc2)c2nn[nH]c2n1 (stereo not drawn)")
"1 to 100 nM"
>>> meas_value("Nc1cc(C(CCCN2CCC(O)(c3ccccc3)CC2)c2ccccc2)c2nn[nH]c2n1 (stereo not drawn)")
"1 to 100 nM"
>>> meas_value("Nc1cc(C(CCC(N)Cc2ccccc2)c2ccccc2)c2nn[nH]c2n1 (stereo not drawn)")
"101 to 999 nM"

Give the observed IC50 of Nc1cc(C(CCN[C@H]2CC[C@H](c3ccc(=O)[nH]c3)CC2)c2ccccc2)c2nn[nH]c2n1 (stereo partly drawn) for myeloperoxidase (Homo sapiens). 101 to 999 nM

Report IC50 from myeloperoxidase (Homo sapiens) testing of N#Cc1ccc(C(CCN[C@H]2CC[C@H](c3ccccc3)CC2)c2cc(N)nc3[nH]nnc23)cc1 (stereo partly drawn) 1000 to 10000 nM

Please look at `Nc1cc([C@H](Cc2nc3c(-c4ccccc4)c(F)c(F)cc3[nH]2)c2ccccc2)c2nn[nH]c2n1` and tell me its recorded IC50 on myeloperoxidase (Homo sapiens). 1 to 100 nM

---

target_system: myeloperoxidase (Homo sapiens, UniProt P05164)
protocol_text: MPO Peroxidation Assay (Amplex Red Assay)
Type: biochemical
protocol_conditions: potency range class, read-out: Amplex Red Assay IC50 value
Reported IC50 values follow for various compounds

>>> meas_value("Nc1cc(C(CCNCc2ccc3ccccc3c2)c2ccccc2)c2nn[nH]c2n1 (stereo not shown)")
"101 to 999 nM"
>>> meas_value("NCc1cccc(C(CCNC23CCC(c4ccccc4)(CC2)CC3)c2cc(N)nc3[nH]nnc23)c1 (stereo not shown)")
"101 to 999 nM"
>>> meas_value("Nc1cc(C(CCN[C@@H]2C[C@H](c3ccccc3)Cc3ccccc32)c2ccccc2)c2nn[nH]c2n1 (stereo partly shown)")
"1000 to 10000 nM"
>>> meas_value("Nc1cc(C(CCNCCCc2ccccc2)c2ccccc2)c2nn[nH]c2n1 (stereo not shown)")
"101 to 999 nM"
>>> meas_value("Nc1cc(C(CNCC(F)(F)c2ccccc2)c2ccccc2)c2nn[nH]c2n1 (stereo not shown)")
"101 to 999 nM"
>>> meas_value("Cn1c(C[C@H](c2ccccc2)c2cc(N)nc3[nH]nnc23)nc2cc(-c3ccccc3)ccc21")
"1000 to 10000 nM"

Report IC50 from myeloperoxidase (Homo sapiens, UniProt P05164) testing of Nc1cc(C(CCNC2CCCCC2)c2ccccc2)c2nn[nH]c2n1 (stereo not shown) 101 to 999 nM

// provenance: patent US11008317B2
